- test system: T1, Mouse PD-1 extracellular domain, hFc tag (mouse, UniProt Q02242 25-169)
- T1 construct: extracellular domain; also called mPro1.ECD.hFc; not shown: human Fc tag at C-terminus
- T1 sequence (looked up): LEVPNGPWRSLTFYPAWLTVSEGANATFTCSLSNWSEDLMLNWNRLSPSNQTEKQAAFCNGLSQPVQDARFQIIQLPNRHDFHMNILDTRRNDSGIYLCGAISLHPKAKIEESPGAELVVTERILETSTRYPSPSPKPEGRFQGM
- measurement notes: SPR Biacore 8K; PD-1-hFc captured on anti-human Fc chip, VHH injected; 1:1 fit
readout: koff (s⁻¹)

(I) AP17R1-2H2-Z1-R1-6E1 (VHH, not shown: his- and c-Myc-tag from vector pETbac) VHH: QVQLVESGGGVVQPGGSLRLSCAASDSIDSMVNMGWYRQAPGKQRELVALIANYITHYADFVKGRFTISRDNSKNTLYLQMNSLRAEDTAVYYCYARNIIVDYWGQGTLVTVSS
(II) AP17R1-2H2-Z1-R1-4B2 (VHH, not shown: his- and c-Myc-tag from vector pETbac) VHH: QVQLVESGGGVVQPGGSLRLSCAASDSISSLVNMGWYRQAPGKQRELVALIANYITHYADFVKGRFTISRDNSKNTLYLQMNSLRAEDTAVYYCYARNIIVDYWGQGTLVTVSS
stdin: Could you determine which record has the numerically smaller koff? Candidates: I and II Refer to your chosen entry by its label in the reply.
stdout: II
(II: 0.0101 s⁻¹, I: 0.0146 s⁻¹)

(A) AP17R1-2H2-Z1-R1-14F1 (VHH, not shown: his- and c-Myc-tag from vector pETbac) VHH: QVQLVESGGGVVQPGGSLRLSCAASDSIDSLVNMGWYRQAPGKQRELVALIAYYITHYADFVKGRFTISRDNSKNTLYLQMNSLRAEDTAVYYCYARNIIVDYWGQGTLVTVSS
(B) AP17R1-2H2-Z1-R1-14F3 (VHH, not shown: his- and c-Myc-tag from vector pETbac) VHH: QVQLVESGGGVVQPGGSLRLSCAASDSIDSLVNMGWYRQAPGKQRELVALIAWYITHYADFVKGRFTISRDNSKNTLYLQMNSLRAEDTAVYYCYARNIIVDYWGQGTLVTVSS
stdin: Could you determine which record has the numerically smaller koff? Candidates: A and B Refer to your chosen entry by its label in the reply.
stdout: A
(A: 0.00218 s⁻¹, B: 0.00732 s⁻¹)
